TARGET UNDER TEST: α4β7 integrin (Homo sapiens (Human), UniProt P13612+P26010)
Sequence (P13612 34-1032): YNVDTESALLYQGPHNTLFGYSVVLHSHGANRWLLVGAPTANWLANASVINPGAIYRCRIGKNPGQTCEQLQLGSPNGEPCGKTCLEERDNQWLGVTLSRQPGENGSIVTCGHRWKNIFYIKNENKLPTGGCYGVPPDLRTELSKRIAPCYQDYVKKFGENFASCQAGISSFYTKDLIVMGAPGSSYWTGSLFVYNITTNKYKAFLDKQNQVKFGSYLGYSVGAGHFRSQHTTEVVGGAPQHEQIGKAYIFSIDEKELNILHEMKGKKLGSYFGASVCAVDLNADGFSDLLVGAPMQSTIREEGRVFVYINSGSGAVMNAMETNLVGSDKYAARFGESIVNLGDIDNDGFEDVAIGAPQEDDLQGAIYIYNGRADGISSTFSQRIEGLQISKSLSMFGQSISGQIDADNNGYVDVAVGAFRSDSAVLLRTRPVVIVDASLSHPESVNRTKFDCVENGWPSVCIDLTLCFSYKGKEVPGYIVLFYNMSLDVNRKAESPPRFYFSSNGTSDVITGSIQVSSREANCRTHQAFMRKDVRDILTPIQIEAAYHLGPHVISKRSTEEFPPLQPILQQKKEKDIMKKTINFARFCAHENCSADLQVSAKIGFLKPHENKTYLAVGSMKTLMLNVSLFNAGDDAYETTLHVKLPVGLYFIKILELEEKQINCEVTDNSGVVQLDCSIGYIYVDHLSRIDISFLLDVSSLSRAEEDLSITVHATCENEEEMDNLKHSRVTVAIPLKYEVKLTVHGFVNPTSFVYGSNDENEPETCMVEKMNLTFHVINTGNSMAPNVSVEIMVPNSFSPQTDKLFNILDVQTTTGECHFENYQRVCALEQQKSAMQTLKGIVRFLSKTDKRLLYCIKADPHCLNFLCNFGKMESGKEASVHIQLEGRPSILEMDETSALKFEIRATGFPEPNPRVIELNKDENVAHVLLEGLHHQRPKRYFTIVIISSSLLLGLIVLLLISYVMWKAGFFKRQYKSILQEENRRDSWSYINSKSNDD
Sequence (P26010 20-798): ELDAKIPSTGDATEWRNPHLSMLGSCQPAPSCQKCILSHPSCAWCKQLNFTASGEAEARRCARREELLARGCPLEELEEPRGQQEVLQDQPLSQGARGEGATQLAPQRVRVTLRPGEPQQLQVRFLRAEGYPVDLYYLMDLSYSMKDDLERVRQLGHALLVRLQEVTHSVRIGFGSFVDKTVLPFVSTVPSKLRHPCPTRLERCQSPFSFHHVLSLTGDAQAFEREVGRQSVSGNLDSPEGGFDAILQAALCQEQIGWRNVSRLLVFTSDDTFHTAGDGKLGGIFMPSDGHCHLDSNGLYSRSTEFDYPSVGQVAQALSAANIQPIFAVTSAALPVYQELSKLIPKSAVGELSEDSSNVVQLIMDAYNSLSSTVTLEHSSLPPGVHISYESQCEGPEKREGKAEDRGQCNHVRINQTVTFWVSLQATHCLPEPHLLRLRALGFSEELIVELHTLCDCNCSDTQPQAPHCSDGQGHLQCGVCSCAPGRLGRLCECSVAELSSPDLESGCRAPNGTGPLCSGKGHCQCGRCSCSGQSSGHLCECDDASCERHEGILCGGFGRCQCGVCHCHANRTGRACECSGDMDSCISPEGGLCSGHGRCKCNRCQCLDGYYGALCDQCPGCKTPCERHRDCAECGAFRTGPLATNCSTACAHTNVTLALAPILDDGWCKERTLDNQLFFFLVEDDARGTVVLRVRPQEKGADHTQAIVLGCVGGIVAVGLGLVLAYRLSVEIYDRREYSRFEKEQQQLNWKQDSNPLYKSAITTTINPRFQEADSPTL
ASSAY SUMMARY: α4β7 Integrin Cell Capture Assay
Assay type: cell-based
ASSAY SETUP: RPMI8866 cells captured on MadCAM-1 extracellular domain-coated plate
Sorting guide: entries reporting EC50 beneath 0.1 nM go in the condition met pile, the rest go in the condition not met pile.

Solved cases (5 shown):
>>> assigned_category("Cc1cc(N2CCOC[C@@H]2C(F)(F)F)cc(F)c1C(=O)N[C@@H](Cc1ccc(-n2c(=O)c3cncnc3n(C)c2=O)c2ncccc12)C(=O)O")
"condition met"
>>> assigned_category("Cc1cc(N2CCOC[C@@H]2C(F)(F)F)cc(F)c1C(=O)N[C@@H](Cc1ccc(-n2c(=O)c3cc(N(C)C)ncc3n(C)c2=O)c2ncccc12)C(=O)O")
"condition not met"
>>> assigned_category("Cc1cc(N2CCOC[C@@H]2C(F)(F)F)cc(C)c1C(=O)N[C@@H](Cc1ccc(-c2c(C(F)(F)F)cc(C)n(C)c2=O)c2ncccc12)C(=O)O")
"condition not met"
>>> assigned_category("CCn1c(=O)n(-c2ccc(C[C@H](NC(=O)c3c(C)cc(N4CCOC[C@@H]4C(F)(F)F)cc3F)C(=O)O)c3cccnc23)c(=O)c2ccncc21")
"condition not met"
>>> assigned_category("Cc1nc(C)n(C)c(=O)c1-c1ccc(C[C@H](NC(=O)c2c(F)cc(N3CCOC[C@@H]3C(F)(F)F)cc2F)C(=O)O)c2cccnc12")
"condition not met"

Shifting focus to the compound that follows.
Regarding `CN(C)c1ccc2c(c1)c(=O)n(-c1ccc(C[C@H](NC(=O)c3c(F)cc(N4CCOC[C@@H]4C(F)(F)F)cc3F)C(=O)O)c3cccnc13)c(=O)n2C` , kindly confirm whether its EC50 is beneath 0.1 nM. condition not met

###

Attribute: EC50
TARGET UNDER TEST: α4β7 integrin (Homo sapiens (Human), UniProt P13612+P26010)
ASSAY SUMMARY: α4β7 Integrin Cell Capture Assay
Format: cell-based
ASSAY SETUP: Table 2; capture of α4β7 expressing RPM18866 cells on MadCAM-1 extracellular domain-coated plate
I only need the number, in nM, no unit after it.

Recorded EC50, per entry:
>>> observed("Cc1cc(C(F)(F)F)c(-c2ccc(C[C@H](NC(=O)c3c(F)cc(N4CCO[C@@H](C)[C@H]4C(F)(F)F)cc3F)C(=O)O)c3cccnc23)c(=O)n1C")
1.1
>>> observed("Cc1cc(C(F)(F)F)c(-c2ccc(C[C@H](NC(=O)c3c(F)cc(N4C[C@@H](C)OC[C@@H]4C)cc3F)C(=O)O)c3cccnc23)c(=O)n1C")
1.3

Attention now turns to another entry.
Value lookup for EC50; key = `CC[C@@H](Nc1cc(F)c(C(=O)N[C@@H](Cc2ccc(-c3ncc4ccccc4c3C(F)(F)F)c3ncccc23)C(=O)O)c(F)c1)C(F)(F)F` 4.9

###

TARGET UNDER TEST: α4β7 integrin (Homo sapiens (Human), UniProt P13612+P26010)
ASSAY SUMMARY: α4β7 Integrin Cell Capture Assay
Format: cell-based
ASSAY SETUP: Table 1; capture of α4β7 expressing RPM18866 cells on MadCAM-1 extracellular domain-coated plate
OBSERVED PROPERTY: EC50 (nM)
Write it as a number; the unit nM goes unstated.

Illustrative cases are given below, each with its answer.
>>> observed("N#Cc1ccc(-c2ccc(C[C@H](NC(=O)c3c(F)cc(CS(=O)(=O)c4ccccc4)cc3F)C(=O)O)c3cccnc23)c(Cl)c1")
33.7
>>> observed("CC[C@@H](Nc1cc(F)c(C(=O)N[C@@H](Cc2ccc(-c3c(C)n(C)c(=O)n(C)c3=O)c3ncccc23)C(=O)O)c(F)c1)C(F)(F)F")
0.6

What value of measured EC50 is listed for `O=C(N[C@@H](Cc1ccc(-c2ccncn2)c2ncccc12)C(=O)O)c1c(F)cc(NS(=O)(=O)c2ccc(-c3ccnc(F)c3)cc2)cc1F` ? 9.1

One more compound: `N#Cc1ccc(-c2ccc(C[C@H](NC(=O)c3c(F)cc(N[C@H](c4ccccc4)C(F)(F)F)cc3F)C(=O)O)c3cccnc23)c(Cl)c1` 8.3

Follow-up entry: `Cn1c(=O)c(-c2ccc(C[C@H](NC(=O)c3c(F)cccc3F)C(=O)O)c3cccnc23)cc2ccccc21` 3.7

Then `Cc1cc(N2CCOC[C@@H]2C(F)(F)F)cc(F)c1C(=O)N[C@@H](Cc1ccc(-c2c(C(F)(F)F)cc(C)n(C)c2=O)c2ncccc12)C(=O)O` ? 0.1

###

TARGET UNDER TEST: α4β7 integrin (Homo sapiens (Human), UniProt P13612+P26010)
ASSAY SUMMARY: α4β7 Integrin Cell Capture Assay
Assay type: cell-based
ASSAY SETUP: Table 1; capture of α4β7 expressing RPM18866 cells on MadCAM-1 extracellular domain-coated plate
Listing: pEC50 of selected compounds
Reminder that pEC50 means the negative base-10 logarithm of the concentration expressed in mol/L.

Worked cases, answers included:
>>> observed("CC[C@@H](Nc1cc(F)c(C(=O)N[C@@H](Cc2ccc(-c3cnc(C)n(C)c3=O)c3ncccc23)C(=O)O)c(F)c1)C(F)(F)F")
8.82
>>> observed("CCOCc1cc(OC)c(-c2ccc(C[C@H](NC(=O)c3c(F)cccc3F)C(=O)O)c3cc(C#N)cnc23)c(OC)c1")
7.68

Moving on to another compound below.
Sample `CS(=O)(=O)Nc1cc(F)c(C(=O)N[C@@H](Cc2ccc(-c3ccc(C#N)cc3Cl)c3ncccc23)C(=O)O)c(F)c1` — what was its pEC50? 8.47

###

TARGET UNDER TEST: α4β7 integrin (Homo sapiens (Human), UniProt P13612+P26010)
ASSAY SUMMARY: α4β7 Integrin Cell Capture Assay
Format: cell-based
ASSAY SETUP: Table 1; capture of α4β7 expressing RPM18866 cells on MadCAM-1 extracellular domain-coated plate
OBSERVED PROPERTY: EC50 (nM)
Provide only the numeric value, understood in nM.

Below are worked cases with known answers.
>>> observed("O=C(N[C@@H](Cc1ccc(-c2ncc3ccccc3c2C(F)(F)F)c2ncccc12)C(=O)O)c1c(F)cccc1F")
9.5
>>> observed("Cc1cc(C(F)(F)F)c(-c2ccc(C[C@H](NC(=O)c3c(Cl)cccc3Cl)C(=O)O)c3cccnc23)c(=O)n1C")
2.5
>>> observed("CC[C@@H](Nc1cc(F)c(C(=O)N[C@@H](Cc2ccc(-c3c(OC)c4ccccc4n(C)c3=O)c3ncccc23)C(=O)O)c(F)c1)C(F)(F)F")
0.2
>>> observed("CCOCc1cc(OC)c(-c2cc(F)c(C[C@H](NC(=O)c3c(F)cccc3F)C(=O)O)c3cccnc23)c(OC)c1")
81.6
>>> observed("COc1c(F)cccc1-c1ccc(C[C@H](NC(=O)c2c(F)cc(NS(=O)(=O)c3ccc(-c4ccnc(F)c4)cc3)cc2F)C(=O)O)c2cccnc12")
3
>>> observed("CCOCc1cc(OC)c(-c2ccc(C[C@H](NC(=O)c3c(F)cc(C(N)=O)cc3F)C(=O)O)c3cccnc23)c(OC)c1")
4.6
>>> observed("COc1cccc(C)c1-c1ccc(C[C@H](NC(=O)c2c(F)cc(NS(=O)(=O)c3ccc(-c4ccnc(F)c4)cc3)cc2F)C(=O)O)c2cccnc12")
0.8
>>> observed("Cc1cc(C(F)(F)F)c(-c2ccc(C[C@H](NC(=O)c3c(F)cc(N4CCOC[C@@H]4CC(F)F)cc3F)C(=O)O)c3cccnc23)c(=O)n1C")
0.5
>>> observed("Cc1cccc(F)c1C(=O)N[C@@H](Cc1ccc(-c2ccc(C#N)cc2Cl)c2ncccc12)C(=O)O")
21.2
>>> observed("Cc1cc(C(F)(F)F)c(-c2ccc(C[C@H](NC(=O)c3c(F)cc(N4CCC[C@@H]4C(F)(F)F)cc3F)C(=O)O)c3cccnc23)c(=O)n1C")
1.3

// lookup EC50 for `Cc1cc(C(F)(F)F)c(-c2ccc(C[C@H](NC(=O)c3c(F)cc(N4C[C@@H](C)OC[C@@H]4C(F)(F)F)cc3F)C(=O)O)c3cccnc23)c(=O)n1C` 0.2

// query: `N#Cc1ccc(-c2ccc(C[C@H](NC(=O)c3c(F)cc(N4CCC[C@@H]4C(F)(F)F)cc3F)C(=O)O)c3cccnc23)c(Cl)c1` 78.4

Ok, now `COc1cnn(C)c(=O)c1-c1ccc(C[C@H](NC(=O)c2c(F)cccc2F)C(=O)O)c2cccnc12` 10.7

###

EC50 reference
TARGET UNDER TEST: α4β7 integrin (Homo sapiens (Human), UniProt P13612+P26010)
ASSAY SUMMARY: α4β7 Integrin Cell Capture Assay
Type: cell-based
ASSAY SETUP: Table 2; capture of α4β7 expressing RPM18866 cells on MadCAM-1 extracellular domain-coated plate
Numbers only; they are read as nM.

For orientation, consider the following solved cases.
>>> observed("CC[C@@H](Nc1cc(F)c(C(=O)N[C@H](Cc2ccc(-c3c(C(F)(F)F)cc(C)n(C)c3=O)c3ncccc23)C(=O)O)c(F)c1)C(F)(F)F")
3.2
>>> observed("CCOCc1cc(OC)c(-c2ccc(C[C@H](NC(=O)c3c(F)cc4[nH]c(Cc5ccccc5)cc4c3F)C(=O)O)c3cccnc23)c(OC)c1")
25.1

Quick one: EC50 for `N#Cc1ccc(-c2ccc(C[C@H](NC(=O)c3c(F)cc(C4=CCOCC4)cc3F)C(=O)O)c3cccnc23)c(Cl)c1` ? 43.6

Recorded values, source patent US11116760B2.
